assayed.target: histamine H3 receptor (Rattus norvegicus)
Construct: from tissue; host or cells: rat striatum (Sprague-Dawley, male, 6 weeks), membrane homogenate
assay.text: Histamine H3 receptor binding assay ([3H]-Nα-methylhistamine binding to rat striatum homogenate)
experimental.conditions: 1 μmol/L test compound; [3H]-Nα-methylhistamine 1 nmol/L; striata of Sprague-Dawley male rats, 25° C., 1 hour; read-out: Inhibition ratio of [3H]-Nα-methylhistamine binding
Each entry below lists one item and its recorded inhibition at 1 µM value.
readout.type: inhibition at 1 µM

>>> result("CC(C)N1CCC(N(C)C(=C(C#N)C#N)N2CCC(CN3CCCCC3)CC2)CC1")
"≥ 80%"
>>> result("CC(C)N1CCC(N2CCN(CCN3CCCCC3)C2=C(C#N)C#N)CC1")
"≥ 80%"
>>> result("N#CN=C1N(CCCN2CCCCC2)CCN1CCCN1CCCCC1")
"≥ 80%"
>>> result("CC1CCCN1CCCN1CCN(CCCN2CCCCCC2)C1=C(C#N)C#N (centres unmarked)")
"≥ 80%"
>>> result("N#CC(C#N)=C1N(CCCCN2CCCCC2)CCN1CCN1CCCCC1")
"≥ 80%"

----------
readout.type: melting point

>>> result("CC(C)N1CCC(N2CCN(CCCN3CCSCC3)C2=C(C#N)C#N)CC1")
"124 to 125 °C"
>>> result("CC(C)N1CCC(N(C)C(=C(C#N)C#N)N2CCC(N3CCCCC3)CC2)CC1")
"129 to 130 °C"
>>> result("C[C@@H]1CCCN1CCCN1CCN(CCN2CCC[C@@H]2C)C1=C(C#N)C#N")
"93 to 94 °C"
>>> result("CC1CCCN1CCCN1CCN(CCN2CCCC2)C1=C(C#N)C#N (stereo not drawn)")
"95 to 96 °C"
>>> result("C[C@@H]1CCCN1CCCN1CCN(CCN2CCCCC2)C1=C(C#N)C#N")
"74 to 76 °C"
>>> result("C[C@H]1CCCN1CCCN1CCN(CCCN2CCC[C@@H]2C)C1=CS(=O)(=O)CC#N")
"91 to 93 °C"
>>> result("C[C@@H]1CCCN1CCCN1CCN(CCCN2CCC[C@@H]2C)C1=C(C#N)C#N")
"87 to 89 °C"
>>> result("CC1CCCN1CCN1CCN(CCCN2CCCCC2)C1=C(C#N)C#N (stereo not drawn)")
"84 to 86 °C"
>>> result("N#CC(C#N)=C1N(CCCN2CCCCC2)CCN1C1CCN(CC(F)(F)F)CC1")
"103 to 105 °C"

----------
assayed.target: histamine H3 receptor (Rattus norvegicus, UniProt Q9QYN8)
Sequence (Q9QYN8 whole entry): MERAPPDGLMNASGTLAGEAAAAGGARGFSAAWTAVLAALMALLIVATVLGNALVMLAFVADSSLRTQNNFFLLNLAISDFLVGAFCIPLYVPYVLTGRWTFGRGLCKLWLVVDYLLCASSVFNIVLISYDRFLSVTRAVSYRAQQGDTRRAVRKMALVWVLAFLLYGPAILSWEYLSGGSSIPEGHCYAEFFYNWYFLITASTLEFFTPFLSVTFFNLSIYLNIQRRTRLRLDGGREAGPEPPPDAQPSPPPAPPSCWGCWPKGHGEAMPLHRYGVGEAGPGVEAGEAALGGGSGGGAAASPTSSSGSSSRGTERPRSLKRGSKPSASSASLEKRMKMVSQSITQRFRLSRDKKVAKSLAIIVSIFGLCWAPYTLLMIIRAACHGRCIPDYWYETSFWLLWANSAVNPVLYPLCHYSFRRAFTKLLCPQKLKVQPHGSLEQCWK
readout.type: Kd (nM)

>>> readout_number("CNCCc1cnc[nH]1 [[^3H]-N^α-methylhistamine, reference compound]")
0.57

Provenance of the data: patent US20090181948A1
